The origin of these recorded values is paper PMC8984176.

- SYSTEM_TESTED: recombinant human NRP1 (Homo sapiens, UniProt O14786)
- Sequence (O14786 22-923): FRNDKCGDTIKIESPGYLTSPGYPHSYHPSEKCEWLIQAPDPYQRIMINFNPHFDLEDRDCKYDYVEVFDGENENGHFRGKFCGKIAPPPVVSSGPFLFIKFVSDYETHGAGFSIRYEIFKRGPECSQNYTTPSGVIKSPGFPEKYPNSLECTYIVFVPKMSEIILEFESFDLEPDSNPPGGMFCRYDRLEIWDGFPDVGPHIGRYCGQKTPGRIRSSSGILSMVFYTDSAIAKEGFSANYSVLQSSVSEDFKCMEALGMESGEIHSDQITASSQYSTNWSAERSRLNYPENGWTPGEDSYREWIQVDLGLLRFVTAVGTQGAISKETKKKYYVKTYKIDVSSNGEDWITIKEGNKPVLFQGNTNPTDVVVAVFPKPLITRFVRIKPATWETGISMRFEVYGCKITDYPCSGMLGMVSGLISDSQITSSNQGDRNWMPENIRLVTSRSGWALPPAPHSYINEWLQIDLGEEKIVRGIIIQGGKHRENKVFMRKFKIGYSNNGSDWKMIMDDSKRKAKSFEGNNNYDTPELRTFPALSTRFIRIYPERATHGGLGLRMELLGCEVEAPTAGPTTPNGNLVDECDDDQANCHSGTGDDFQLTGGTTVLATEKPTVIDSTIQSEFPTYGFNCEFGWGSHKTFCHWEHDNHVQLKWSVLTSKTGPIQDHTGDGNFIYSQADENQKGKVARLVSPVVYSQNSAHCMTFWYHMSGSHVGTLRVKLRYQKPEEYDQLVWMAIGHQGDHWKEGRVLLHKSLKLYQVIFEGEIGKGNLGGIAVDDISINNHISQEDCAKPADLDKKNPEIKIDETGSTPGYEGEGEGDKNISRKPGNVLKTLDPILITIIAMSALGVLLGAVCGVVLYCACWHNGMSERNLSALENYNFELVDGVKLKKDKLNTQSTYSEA
- ASSAY_SUMMARY: SPR binding to immobilized NRP1
- EXPERIMENTAL_CONTEXT: SPR Biacore T200, CM5 chip, amine coupling, 25°C, 30 µl/min, 1×PBS, 0.05% Tween 20, 5% dimethyl sulfoxide, pH 7.4; steady state affinity model; read-out: K D value
Peptide text beside a SMILES is read from it.
QUANTITY: pKd
Units for pKd: none; it is -log10 of a concentration expressed in mol/L.

Entry C[C@@H](O)[C@H](N)C(=O)N[C@@H](CCCCN)C(=O)N1CCC[C@H]1C(=O)N[C@@H](CCCNC(=N)N)C(=O)O [tuftsin, L-Threonyl-L-Lysyl-L-Prolyl-L-Arginine] (H-TKPR-OH) — recorded pKd = 4.97

###

- SYSTEM_TESTED: recombinant human ACE2 (Homo sapiens, UniProt Q9BYF1)
- Sequence (Q9BYF1 18-805): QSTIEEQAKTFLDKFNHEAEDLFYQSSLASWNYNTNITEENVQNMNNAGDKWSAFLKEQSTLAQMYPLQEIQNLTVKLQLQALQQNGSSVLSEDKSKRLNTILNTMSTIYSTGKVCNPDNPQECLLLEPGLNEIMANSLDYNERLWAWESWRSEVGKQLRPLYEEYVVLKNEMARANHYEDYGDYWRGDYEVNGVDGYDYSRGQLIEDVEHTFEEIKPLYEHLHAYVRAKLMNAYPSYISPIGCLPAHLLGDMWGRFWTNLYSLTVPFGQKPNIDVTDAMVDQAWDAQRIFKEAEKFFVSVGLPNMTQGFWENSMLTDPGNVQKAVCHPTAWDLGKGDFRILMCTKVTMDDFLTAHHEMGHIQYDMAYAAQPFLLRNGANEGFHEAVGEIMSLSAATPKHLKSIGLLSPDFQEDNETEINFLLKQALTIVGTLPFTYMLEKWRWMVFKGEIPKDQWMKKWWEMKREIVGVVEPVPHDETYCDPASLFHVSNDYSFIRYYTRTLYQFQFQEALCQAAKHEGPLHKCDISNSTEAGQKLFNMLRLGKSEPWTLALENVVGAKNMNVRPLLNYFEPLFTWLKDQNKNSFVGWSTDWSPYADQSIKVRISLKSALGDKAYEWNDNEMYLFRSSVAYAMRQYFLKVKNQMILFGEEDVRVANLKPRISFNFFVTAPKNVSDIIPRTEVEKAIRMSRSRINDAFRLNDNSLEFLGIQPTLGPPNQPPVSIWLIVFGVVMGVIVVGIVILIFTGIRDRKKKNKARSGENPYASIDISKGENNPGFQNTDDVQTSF
- ASSAY_SUMMARY: SPR binding to immobilized ACE2
- EXPERIMENTAL_CONTEXT: SPR Biacore T200, CM5 chip, amine coupling, 25°C, 30 µl/min, 1×PBS, 0.05% Tween 20, 5% dimethyl sulfoxide, pH 7.4; steady state affinity model; read-out: equilibrium dissociation constant (K D)
Peptide text beside a SMILES is read from it.
QUANTITY: Kd (µM)
Enter your answer as a number in µM; do not include the unit.

Entry C[C@@H](O)[C@H](N)C(=O)N[C@@H](CCCCN)C(=O)N1CCC[C@H]1C(=O)N[C@@H](CCCNC(=N)N)C(=O)O [tuftsin, L-Threonyl-L-Lysyl-L-Prolyl-L-Arginine] (H-TKPR-OH) — recorded Kd = 460
